molecular target: gamma secretase (Homo sapiens); construct: HEK293 cells stably expressing full length Amyloid Precursor Protein (APP); endogenous in cells; experiment: GSM cell-based assay: Aβ 42 inhibition or reduction in HEK 293 cells over-expressing APP (sandwich ELISA); conditions: approximate IC50; HEK293 cells stably expressing full length APP, 24 hours incubation, 10-point dose response starting at 10 μM
pIC50: −log10 of the molar value.
Quick rule: pIC50 of at least 6 means Met, below that means Not met.

>>> assigned_category("COc1cc(NC(=O)C(C)c2cccc(-c3ccc(N4CCOCC4)cc3)c2)ccc1-c1ccnc(C)c1 (centres unmarked)")
"Met"
>>> assigned_category("CC(=O)c1ccc(-c2cccc(C(C)C(=O)Nc3ccc(-c4ccnc(C)c4)cc3)c2)cc1 (centres unmarked)")
"Met"
>>> assigned_category("Cc1cc(-c2ccc(NC(=O)C3CCN(Cc4ccccc4)CC3)cc2)ccn1")
"Not met"
>>> assigned_category("Cc1cc(-c2ccc(NC(=O)Cc3ccc(OCc4ccccc4)cc3)cc2)ccn1")
"Not met"
>>> assigned_category("COc1cc(C(C)C(=O)Nc2ccc(-c3ccnc(C)c3)cc2)ccc1N (centres unmarked)")
"Not met"
>>> assigned_category("Cc1cc(-c2ccc(NC(=O)c3cn4cc(Br)ccc4n3)cc2)ccn1")
"Not met"
>>> assigned_category("Cc1cc(-c2ccc(NC(=O)c3ccc4[nH]c5c(c4c3)CSCC5)cc2)ccn1")
"Not met"
>>> assigned_category("Cc1cc(-c2ccc(NC(=O)C3CC(=O)N(c4ccc(Cl)cc4)C3)cc2)ccn1 (centres unmarked)")
"Not met"
>>> assigned_category("Cc1cc(-c2ccc(NC(=O)[C@H](C)c3ccc4c(c3)[nH]c3ccc(Cl)cc34)cc2)ccn1")
"Met"
>>> assigned_category("Cc1cc(-c2ccc(NC(=O)C(C)c3cccc(-c4cccc(C#N)c4)c3)cc2)ccn1 (centres unmarked)")
"Met"
>>> assigned_category("Cc1cc(-c2ccc(NC(=O)c3cc(Cl)nc(Cl)c3)cc2)ccn1")
"Not met"
>>> assigned_category("Cc1cc(-c2ccc(NC(=O)C(C)c3cccc(N4CCN(C)CC4)c3)cc2)ccn1 (centres unmarked)")
"Not met"
>>> assigned_category("Cc1cc(-c2ccc(NC(=O)C3CCCO3)cc2)ccn1 (centres unmarked)")
"Not met"
>>> assigned_category("Cc1cc(-c2ccc(NC(=O)C(CC(C)C)c3cccc(-c4ccc(N5CCN(C(=O)OC(C)(C)C)CC5)cc4)c3)cc2)ccn1 (centres unmarked)")
"Met"
>>> assigned_category("Cc1cc(-c2ccc(NC(=O)C(CC3CC3)c3cccc(Br)c3)cc2)ccn1 (centres unmarked)")
"Met"
>>> assigned_category("Cc1cc(-c2ccc(NC(=O)C(C)c3ccc4c(c3)[nH]c3ccc(Cl)cc34)cc2)ccn1 (centres unmarked)")
"Met"
>>> assigned_category("Cc1cc(-c2ccc(NC(=O)c3cc(C4CC4)on3)cc2)ccn1")
"Not met"
>>> assigned_category("Cc1cc(C(C)C(=O)Nc2ccc(-c3ccnc(C)c3)cc2)cc(N2CCC(F)(F)CC2)c1 (centres unmarked)")
"Not met"
>>> assigned_category("Cc1cc(-c2ccc(NC(=O)[C@H](C)c3cccc(-c4ccc(C(=O)O)cc4)c3)cc2)ccn1")
"Not met"
>>> assigned_category("Cc1cc(-c2ccc(NC(=O)C(C)c3cc(N4CCOCC4)cc(C(F)(F)F)c3)cc2)ccn1 (centres unmarked)")
"Not met"
>>> assigned_category("Cc1cc(-c2ccc(NC(=O)Cc3c(C)noc3C)cc2)ccn1")
"Not met"
>>> assigned_category("Cc1cc(-c2ccc(NC(=O)Cc3cc(C(F)(F)F)cc(C(F)(F)F)c3)cc2)ccn1")
"Met"
>>> assigned_category("Cc1cc(-c2ccc(NC(=O)C(C)c3cccc(C4CCN(CCO)CC4)c3)cc2)ccn1 (centres unmarked)")
"Not met"
>>> assigned_category("Cc1cc(-c2ccc(NC(=O)C3CC(=O)c4ccccc43)cc2)ccn1 (centres unmarked)")
"Not met"
>>> assigned_category("Cc1cc(-c2ccc(NC(=O)C(C)c3cccc(-c4ccc(C(=O)N(C)C)cc4)c3)cc2)ccn1 (centres unmarked)")
"Met"
>>> assigned_category("Cc1cc(-c2ccc(NC(=O)c3cccc(C(F)(F)F)c3)cc2)ccn1")
"Not met"
>>> assigned_category("Cc1cc(-c2ccc(NC(=O)Cc3ccccn3)cc2)ccn1")
"Not met"
>>> assigned_category("Cc1cc(-c2ccc(NC(=O)c3cc4ccc(F)cc4s3)cc2)ccn1")
"Not met"
>>> assigned_category("Cc1cc(-c2ccc(NC(=O)[C@@H](CC(C)C)c3cccc(-c4ccc(N5CCOCC5)cc4)c3)cc2)ccn1")
"Met"
>>> assigned_category("Cc1cc(-c2ccc(NC(=O)Cc3ccc4oc(-c5cccnc5)nc4c3)cc2)ccn1")
"Not met"
